Would you kindly list Hemoglobin Hgb for each of these substances?
# Test system: ICR (CD-1) mice
# measurement-notes: In vivo toxicity in mice (SC, IN, IP routes)
# experimental-parameters: IP, 3 doses (1hr, 12hr, 24hr); RN7-IN10, RN7-IN8 20 mg/kg; RN7-IN9, RN7-IN6 10 mg/kg; day 7; mean±SD, 4 mice
Your answer is read as g/dL, so omit the unit and give the number.

I would be grateful if you could share the reported Hemoglobin Hgb for FLGGLIKWKWPWWPWRR-NH2 [RN7-IN10, hybrid peptide of ranalexin (residues 1-7) and indolicidin (residues 4-13)] .
15.85

I would be grateful if you could share the reported Hemoglobin Hgb for FLGGLIKKWPWWPWRR-NH2 [RN7-IN9, hybrid peptide of ranalexin (residues 1-7) and indolicidin (residues 5-13)] .
13.9

I would be grateful if you could share the reported Hemoglobin Hgb for FLGGLIKWPWWPWRR-NH2 [RN7-IN8, hybrid peptide of ranalexin (residues 1-7) and indolicidin (residues 6-13)] .
14.55

I would be grateful if you could share the reported Hemoglobin Hgb for FLGGLIKWWPWRR-NH2 [RN7-IN6, hybrid peptide of ranalexin (residues 1-7) and indolicidin (residues 8-13)] .
15.02
